Assay: Cellular viability qHTS for adrenocortical cancer (ACC) cell line NCI-H295R (AID 1963990); also: nearly all actives have a fitted effect of over 60% in size
Conditions: CellTiter-Glo ATP luminescence, 48 h; series mostly up to 46.1 µM
Results filed as inconclusive are left out. Active and inactive are the calls of the source. Calls follow the shape of the dose curve; as a rule, active = well fitted cell-killing curve with a large enough effect; inconclusive = small, poorly fitted or top-dose-only effect; inactive = flat fitted curve, though single readings scatter. Bridge positions count the residues as written; N and C are the ends. Square brackets hold non-standard residues; d marks the D form. Peptide text beside a SMILES is read from it. * marks the point of attachment. ξ: configuration not given here. Octanoyl(6-Me) = CCC(C)CCCCC(=O)*; ξThr(3R) = C[C@@H](O)C(N)C(=O)O; dDab = NCC[C@@H](N)C(=O)O; Dab = NCC[C@H](N)C(=O)O
Please answer using one outcome listed in active, inactive

(Q) Returns: the outcome recorded for Clc1ccc(COC(Cn2ccnc2)c2ccc(Cl)cc2Cl)c(Cl)c1 (stereo not given) in this assay.
(A) active

(Q) Recorded call for CCN1CCN(c2cc(-c3ccc(F)cc3)c3c(n2)CCCCCC3)CC1 ?
(A) inactive

(Q) Lab log entry: CNC(=O)c1c(C)oc2cc(Oc3ncnc4cc(OC)c(OC)cc34)ccc12 — outcome as called in the assay?
(A) inactive

(Q) Record lookup: outcome of this test for CCC(C)CCCCC(=O)N[C@@H](CCN)C(=O)NC(C(=O)N[C@H](CCN)C(=O)N[C@@H]1CCNC(=O)C([C@@H](C)O)NC(=O)[C@@H](CCN)NC(=O)[C@@H](CCN)NC(=O)[C@@H](CC(C)C)NC(=O)[C@H](Cc2ccccc2)NC(=O)[C@H](CCN)NC1=O)[C@@H](C)O (stereo partly drawn) ({Octanoyl(6-Me)}-[Dab][ξThr(3R)][dDab][dDab][Dab]F[dL][dDab][dDab][ξThr(3R)]; lactam 4-C) ?
(A) inactive

(Q) Identify the outcome logged in this assay for the compound shown: CCCCCCn1c(=O)c2c(ncn2C)n(C)c1=O
(A) inactive

Source listed as PubChem BioAssay (NCATS).
